Every entry's value here was drawn from patent US11958812B2.

assayed-system: human recombinant ATX (Homo sapiens, UniProt Q13822)
experimental-details: Enzyme inhibition test (choline release from LPC, Amplex UltraRed fluorescence)
condition-context: 200 μM LPC substrate, 1 hr at room temperature, read-out: Experimental Example 1 human ATX IC50
Excerpt: [Enzyme Inhibition Test Method] […]
pIC50: −log10 of the molar value.
Measured pIC50, listed per entry.
endpoint-name: pIC50

compound | endpoint-name | reported-measurement
O=C(O)CC[C@H]1CN(c2cncc(OCc3ccc(OC(F)(F)F)cc3)c2)CCO1 | pIC50 | 7.92
COc1ccc(C2CN(c3cncc(OC[C@H]4CC[C@H](C(F)(F)F)CC4)c3)CCO2)cc1C(=O)O (stereo partly shown) | pIC50 | 8.52
COc1ccc(-c2cnnc(OC[C@H]3CC[C@H](C(F)(F)F)CC3)c2)nc1[C@H]1C[C@@H]1C(=O)O | pIC50 | 9.00
COc1ccc(-c2cnnc(CCc3ccc(OC(F)(F)F)cc3)c2)cc1[C@@H]1C[C@H]1C(=O)O (relative stereo) | pIC50 | 7.77
O=C(O)CCC1CN(c2cncc(OCc3ccc(OC(F)(F)F)cc3)c2)CCN1CC(F)(F)F (stereo not shown) | pIC50 | 7.41
O=C(O)CC[C@H]1CN(c2cncc(OCC3CCN(CC(F)(F)F)CC3)c2)CCO1 | pIC50 | 6.87
COc1ccc(-c2cncc(/C=C/c3ccc(OC(F)(F)F)cc3)c2)nc1[C@H]1C[C@@H]1C(=O)O | pIC50 | 8.40

====

assayed-system: human recombinant ATX (Homo sapiens, UniProt Q13822)
experimental-details: Enzyme inhibition test (choline release from LPC, Amplex UltraRed fluorescence)
condition-context: 200 μM LPC substrate, 1 hr at room temperature, read-out: Experimental Example 1 human ATX IC50
pIC50: −log10 of the molar value.

compound | assayed-system | pIC50
O=C(O)CC[C@H]1CN(c2cncc(OC[C@H]3CC[C@@H](C(F)(F)F)CC3)c2)CCO1 | human recombinant ATX (Homo sapiens, UniProt Q13822) | 7.11
COc1cc(C2CN(c3cncc(OC[C@H]4CC[C@H](C(F)(F)F)CC4)c3)CCO2)ccc1C(=O)O (some centres unmarked) | human recombinant ATX (Homo sapiens, UniProt Q13822) | 8.70
O=C(O)CC[C@H]1CN(c2cncc(OCc3ccc(OC(F)(F)F)c(Cl)c3)c2)CCO1 | human recombinant ATX (Homo sapiens, UniProt Q13822) | 7.54
O=C(O)CC[C@H]1CN(c2cncc(OCc3cccc(Cl)c3)c2)CCO1 | human recombinant ATX (Homo sapiens, UniProt Q13822) | 6.72
C[C@@H]1CN(c2cncc(OCc3ccc(OC(F)(F)F)cc3)c2)C[C@H](CCC(=O)O)O1 | human recombinant ATX (Homo sapiens, UniProt Q13822) | 7.80
O=C(O)CC[C@@H]1CN(c2cncc(OCc3ccc(OC(F)(F)F)cc3)c2)CCO1 | human recombinant ATX (Homo sapiens, UniProt Q13822) | 6.82
COc1ccc(-c2cnnc(OC[C@H]3CC[C@H](C(F)(F)F)CC3)c2)cc1[C@@H]1C[C@H]1C(=O)O | human recombinant ATX (Homo sapiens, UniProt Q13822) | 8.30
CC1(C(=O)O)CC1[C@H]1CN(c2cnnc(OC[C@H]3CC[C@H](C(F)(F)F)CC3)c2)CCO1 (some centres unmarked) | human recombinant ATX (Homo sapiens, UniProt Q13822) | 8.05

====

assayed-system: human recombinant ATX (Homo sapiens, UniProt Q13822)
experimental-details: Enzyme inhibition test (choline release from LPC, Amplex UltraRed fluorescence)
condition-context: 200 μM LPC substrate, 1 hr at room temperature, read-out: Experimental Example 1 human ATX IC50
endpoint-name: IC50 (nM)

molecule | measure-unit | reported-measurement
COc1cc(C2CN(c3cncc(OC[C@H]4CC[C@H](C(F)(F)F)CC4)c3)CCO2)ncc1C(=O)O (stereo partly shown) | nM | 5
O=C(O)[C@@H]1C[C@H]1c1cc(-c2cncc(OC[C@H]3CC[C@H](C(F)(F)F)CC3)c2)ccn1 | nM | 3
Cc1cnc(C2CN(c3cncc(OC[C@H]4CC[C@H](C(F)(F)F)CC4)c3)CCO2)cc1C(=O)O (stereo partly shown) [Example 60] | nM | 5
Cc1cc(C2CN(c3cncc(OC[C@H]4CC[C@H](C(F)(F)F)CC4)c3)CCO2)cnc1C(=O)O (stereo partly shown) | nM | 2
O=C(O)c1ccc2c(c1)CCCN2c1cncc(OCc2ccc(OC(F)(F)F)cc2)c1 | nM | 31
O=C(O)c1cccc2c1CCN2c1cncc(OCc2ccc(OC(F)(F)F)cc2)c1 | nM | 382
COc1ccc(-c2cncc(OCc3ccccc3)c2)cc1C1CC1C(=O)O (stereo not shown) | nM | 121
O=C(O)c1ccc(C2CN(c3cncc(OCc4ccc(OC(F)(F)F)cc4)c3)CCO2)nc1 (stereo not shown) | nM | 7
COc1ccc(-c2cncc(/C=C\c3ccc(OC(F)(F)F)cc3)c2)nc1[C@H]1C[C@@H]1C(=O)O | nM | 56
O=C(O)[C@H]1C[C@@H]1c1cc(-c2cnnc(OC[C@H]3CC[C@H](C(F)(F)F)CC3)c2)ccn1 | nM | 1
O=C(O)CC[C@H]1CN(c2cncc(OCC3CCC4(CCC4)CC3)c2)CCO1 | nM | 8
O=C(O)c1cncc(C2CN(c3cncc(OC[C@H]4CC[C@H](C(F)(F)F)CC4)c3)CCO2)c1 (stereo partly shown) | nM | 7
COc1ccc(-c2cnnc(OCc3ccc(OC(F)(F)F)cc3)c2)cc1C1CC1C(=O)O (stereo not shown) | nM | 4
COc1ccc(-c2cncc(OCc3cccc(Cl)c3)c2)cc1C1CC1C(=O)O (stereo not shown) | nM | 26
C[C@H]1CN(c2cncc(OCc3ccc(OC(F)(F)F)cc3)c2)C[C@H](CCC(=O)O)O1 | nM | 133
COc1ccc(-c2cnnc(OC[C@H]3CC[C@H](C(F)(F)F)CC3)c2)nc1[C@H]1C[C@]1(C)C(=O)O | nM | 1

====

assayed-system: human recombinant ATX (Homo sapiens, UniProt Q13822)
experimental-details: Enzyme inhibition test (choline release from LPC, Amplex UltraRed fluorescence)
condition-context: 200 μM LPC substrate, 1 hr at room temperature, read-out: Experimental Example 1 human ATX IC50
endpoint-name: IC50 (µM)

compound | endpoint-name | reported-measurement
O=C(O)[C@@H]1C[C@H]1c1cccc(-c2cncc(OC[C@H]3CC[C@H](C(F)(F)F)CC3)c2)n1 | IC50 | 0.02
O=C(O)c1ccc(C2CN(c3cncc(OC[C@H]4CC[C@H](C(F)(F)F)CC4)c3)CCO2)cn1 (stereo partly drawn) | IC50 | 0.003
O=C(O)CC[C@H]1CN(c2cncc(OCc3ccc(Cl)cc3)c2)CCO1 | IC50 | 0.091
O=C(O)[C@H]1C[C@@H]1c1cc(-c2cncc(OCc3ccc(OC(F)(F)F)cc3)c2)ccn1 | IC50 | 0.01
O=C(O)c1ccc2c(c1)CCN2c1cncc(OCc2ccc(OC(F)(F)F)cc2)c1 | IC50 | 0.006
O=C(O)COC[C@@H]1CCCN1c1cncc(OCc2ccc(OC(F)(F)F)cc2)c1 | IC50 | 0.019
O=C(O)CC[C@H]1CN(c2cncc(OCc3ccc(F)cc3)c2)CCO1 | IC50 | 0.381
O=C(O)CCC1CCN(c2cncc(OCc3ccc(OC(F)(F)F)cc3)c2)C1 (stereo not drawn) | IC50 | 0.12
O=C(O)/C=C/C[C@@H]1COCCN1c1cncc(OCc2ccc(OC(F)(F)F)cc2)c1 | IC50 | 0.003
CC(C[C@H]1CN(c2cncc(OCc3ccc(OC(F)(F)F)cc3)c2)CCO1)C(=O)O (stereo partly drawn) | IC50 | 0.056
O=C(O)c1ccnc(C2CN(c3cncc(OC[C@H]4CC[C@H](C(F)(F)F)CC4)c3)CCO2)c1 (stereo partly drawn) | IC50 | 0.005
O=C(O)c1cccc(C2CN(c3cncc(OCc4ccc(OC(F)(F)F)cc4)c3)CCO2)c1 (stereo not drawn) | IC50 | 0.013
O=C(O)c1cccc(C2CCN(c3cncc(OCc4ccc(OC(F)(F)F)cc4)c3)C2)c1 (stereo not drawn) | IC50 | 0.013
O=C(O)CC[C@H]1CN(c2cncc(CCc3ccc(OC(F)(F)F)cc3)c2)CCO1 | IC50 | 0.133
O=C(O)CCCC1CCCN1c1cncc(OCc2ccc(OC(F)(F)F)cc2)c1 (stereo not drawn) | IC50 | 0.011
O=C(O)CC[C@H]1CN(c2cncc(OCc3ccc(OC(F)(F)F)cc3F)c2)CCO1 | IC50 | 0.019
O=C(O)CC[C@H]1CN(c2cncc(OCc3ccc(OC(F)(F)F)c(F)c3)c2)CCO1 | IC50 | 0.021
COc1ccc(-c2cncc(OCc3ccc(OC(F)(F)F)cc3)c2)cc1[C@@H]1C[C@H]1C(=O)O (relative stereo) | IC50 | 0.009
O=C(O)CC1CCN(c2cncc(OCc3ccc(OC(F)(F)F)cc3)c2)C1 (stereo not drawn) | IC50 | 0.378
Cc1ncc(C2CN(c3cncc(OC[C@H]4CC[C@H](C(F)(F)F)CC4)c3)CCO2)cc1C(=O)O (stereo partly drawn) | IC50 | 0.005
Cc1cc(OC(F)(F)F)ccc1COc1cncc(N2CCO[C@@H](CCC(=O)O)C2)c1 | IC50 | 0.008
O=C(O)CC[C@H]1CN(c2cncc(OCc3ccccc3Cl)c2)CCO1 | IC50 | 0.493
Cc1ccc(C2CN(c3cncc(OC[C@H]4CC[C@H](C(F)(F)F)CC4)c3)CCO2)nc1C(=O)O (stereo partly drawn) | IC50 | 0.004
O=C(O)C1CN(c2cncc(OCc3ccc(OC(F)(F)F)cc3)c2)CCO1 (stereo not drawn) | IC50 | 0.419
O=C(O)CC[C@H]1CN(c2cncc(OCC3CCCCC3)c2)CCO1 | IC50 | 0.104
COc1ccc(-c2cncc(OCc3cccc(OC(F)(F)F)c3)c2)cc1C1CC1C(=O)O (stereo not drawn) | IC50 | 0.057
COc1ccc(C2CN(c3cncc(OCC4CCN(CC(F)(F)F)CC4)c3)CCO2)cc1C(=O)O (stereo not drawn) | IC50 | 0.035
COc1ccc(-c2cncc(OCc3ccc(C(F)(F)F)cc3)c2)nc1[C@H]1C[C@@H]1C(=O)O | IC50 | 0.003
O=C(O)c1ccccc1C1CN(c2cncc(OCc3ccc(OC(F)(F)F)cc3)c2)CCO1 (stereo not drawn) | IC50 | 0.35
O=C(O)COC[C@H]1CCCN1c1cncc(OCc2ccc(OC(F)(F)F)cc2)c1 | IC50 | 0.013
Cc1cc(C2CN(c3cncc(OC[C@H]4CC[C@H](C(F)(F)F)CC4)c3)CCO2)ncc1C(=O)O (stereo partly drawn) | IC50 | 0.007
O=C(O)CCCC1CCN(c2cncc(OCc3ccc(OC(F)(F)F)cc3)c2)C1 (stereo not drawn) | IC50 | 0.05
O=C(O)CCC1CCCN1c1cncc(OCc2ccc(OC(F)(F)F)cc2)c1 (stereo not drawn) | IC50 | 0.204
